# assay.system: T1, human 4-1BB on CHO-K1 cells (human, UniProt Q07011 24-255)
# T1 construct: whole, on cells; also called CHO-K1/hu 4-1BB; CHO-K1/hu4-1BB
# T1 sequence (Q07011 24-255): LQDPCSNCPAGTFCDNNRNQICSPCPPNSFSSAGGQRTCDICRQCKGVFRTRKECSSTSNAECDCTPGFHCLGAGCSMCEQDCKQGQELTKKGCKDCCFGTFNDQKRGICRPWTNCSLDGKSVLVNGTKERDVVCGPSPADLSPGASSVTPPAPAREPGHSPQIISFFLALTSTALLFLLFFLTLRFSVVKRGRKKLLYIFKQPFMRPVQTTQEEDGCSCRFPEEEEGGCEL
# procedure.summary: FACS, CHO-K1/hu 4-1BB cells
observable: binding result

PR001771 (antibody, human IgG1, V domains shown, HCAb, heavy chain only, human IgG1 Fc; also called 1016P0042C5) VH: EVQLLESGGGLVQPGGSLRLSCAASGFTFSNYAMTWVRQPPGKGLEWVSSISGSGGSTYYADSVKGRFTISRDNSKNTLYLQMNSLRAEDTAVYYCAKEGTGTTSDYYYNVDVWGQGTTVTVSS ... binds
PR001781 (antibody, human IgG1, V domains shown, HCAb, heavy chain only, human IgG1 Fc; also called 1016P007F3) VH: EVQLLESGGGLVQLGGSLRLSCAASGFTFSSYAMTWVRQAPEKGLEWVSSISGSGGNTYYADSVKGRFTISRDNSKNTLYLQMNSLRAEDTAVYYCAKERTGTTGDYYYNVDVWGQGTTVTVSS ... binds
PR007290 (antibody, human IgG1, V domains shown, HCAb, heavy chain only, human IgG1 Fc; also called R1016P145C05) VH: EVQLVESGGGVVQPGRSLRLSCAASGFTFSDYYMSWFRQAPGKGLEWVSYISSSGTTIDYADSVKGRFTISRDNAKNSLYLQMNSLRAEDTAVYYCAREREEVAGTLDFDYWGQGTPVTVSS ... binds
PR007381 (antibody, human IgG1, V domains shown, HCAb, variant of PR001838 (F37V, P40A, E42G, T43K, K46E, G53A), human IgG1) VH: EVQLLESGGGLVQPGGSLRLSCAASGFTFSNYAMSWVRQAPGKGLEWVSSIDASGGDTYYADSVKGRFTISRDNSKNTLYLQMNSLRAEDTAVYYCAKEGSHGTDDSHYDVDVWGQGTTVTVSS ... binds

The origin of these recorded values is patent US20230242658A1.
